target: beta amyloid peptide Aβ(1-40) (Homo sapiens); construct: 0.5 mg/mL AP (140) peptide in 20% HFIP+0.1 μL/assay radioiodinated ^125I Aβ(1-40); assay: BAPA (Beta-Amyloid Peptide Aggregation), pH 6.0; details: Aβ(1-40) 33 μM, pH 6.0, 2 to 4 hours at room temperature, filtration
Sequence (P05067 672-711 limits assumed): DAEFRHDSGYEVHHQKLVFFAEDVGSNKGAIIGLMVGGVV
experimental_readout: IC50 (µM)

• CCCCCCN(C)c1ccc(/C=C2\SC(=S)N(CCNS(C)(=O)=O)C2=O)cc1 = 8
• CCCCCCN(C)c1ccc(/C=C2\SC(=S)N(CC(=O)NS(=O)(=O)c3ccccc3)C2=O)cc1 = 4
• CCCCCN(CCCCC)c1ccc(/C=C2\SC(=S)N(CC(=O)NS(=O)(=O)c3ccc(F)cc3)C2=O)cc1 = 93

a: CCCCCCN(C)c1ccc(/C=C2\SC(=S)N(CC(=O)NS(=O)(=O)C(F)(F)F)C2=O)cc1
b: CCCCCCN(C)c1ccc(/C=C2\SC(=S)N(CCNC(C)=O)C2=O)cc1
Ask | Thinking about recorded IC50 values, which is higher, a or b ? Pick one; state its label.
Reply | a
(a: 70 µM, b: 30 µM)

P: CCCCCCN(C)c1ccc(/C=C2\SC(=S)N(CCNS(=O)(=O)C(F)(F)F)C2=O)cc1
Q: CCCCCN(CCCCC)c1ccc(/C=C2\SC(=S)N(CC(=O)NS(C)(=O)=O)C2=O)cc1
Ask | Return label of the item with the larger IC50. Candidates: P , Q . Select an item and report its label.
Reply | P
(P: 26 µM, Q: 3 µM)

P: CCCC1CCN(c2ccc(/C=C3\SC(=S)N(CC(=O)NS(=O)(=O)c4ccc(F)cc4)C3=O)cc2)CC1
Q: CCCCCCN(C)c1ccc(/C=C2\SC(=S)N(CC(=O)NC)C2=O)cc1
R: O=C(CN1C(=O)/C(=C/c2ccc(N3CC[C@@H]4CCCC[C@H]4C3)cc2)SC1=S)NS(=O)(=O)c1ccc(F)cc1
Ask | Your job: order these 3 records by IC50, ascending. Lab note: final answer is the ordered label list.
Reply | Q, P, R
(Q: 6 µM, P: 37 µM, R: 66 µM)

P: O=C1/C(=C/c2ccc(N3CCC4CCCCC4C3)cc2)SC(=S)N1Cc1cc(=O)c(O)co1 (stereo not shown)
Q: CCCCCN(CCCCC)c1ccc(/C=C2\SC(=S)N(Cc3nnn[nH]3)C2=O)cc1
R: CCCCN(CCCC)c1ccc(/C=C2\SC(=S)N(CC(=O)NS(=O)(=O)c3ccccc3)C2=O)cc1
S: CCCCCCN(C)c1ccc(/C=C2\SC(=S)N(CCNC(=O)C(F)(F)F)C2=O)cc1
T: CCCCCCN(C)c1ccc(/C=C2\SC(=S)N(CCS(=O)(=O)NC)C2=O)cc1
Ask | Would you mind ranking these molecules by ascending IC50? A ranking is expressed here by listing the labels in the requested order.
Reply | Q, T, S, P, R
(Q: 2 µM, T: 7 µM, S: 28 µM, P: 46 µM, R: 129 µM)

###

biological target: Aβ(1-40) (Homo sapiens); construct: Soluble Aβ(1-40) peptide (Bachem, Torrance, Calif.); purchased Bachem, Torrance, Calif; assay: BASSR (Beta-Amyloid Self-Seeding Radioassay), inhibitors of self-seeded amyloid fibril growth; assay type: biochemical; details: 30 μM soluble Aβ(1-40) + 125I-labeled Aβ(1-40), pH 7.5, 37° C., 3 to 5 hours, filtration
pIC50: −log10 of the molar value.
experimental_readout: pIC50

A selection of reference data follows.
* CCCCN(CCCC)c1ccc(/C=C2\SC(=S)N(CC(=O)NS(=O)(=O)c3ccc(F)cc3)C2=O)cc1 [Example 25] | 5.22
* CCCCCCN(C)c1ccc(/C=C2\SC(=S)N(Cc3nnn[nH]3)C2=O)cc1 [Example 16] | 5.15
* CCCCN(CCCC)c1ccc(/C=C2\SC(=S)N(CCS(=O)(=O)NC(=O)c3ccccc3)C2=O)cc1 [Example 28] | 4.68

I: CCCCCCN(C)c1ccc(/C=C2\SC(=S)N(CCS(=O)(=O)NC(=O)C(F)(F)F)C2=O)cc1 [Example 3]
II: CCCCN(CCCC)c1ccc(/C=C2\SC(=S)N(CC(=O)NS(=O)(=O)c3ccccc3)C2=O)cc1 [Example 19]
Ask | From the items above, decide which of I and II has the lower pIC50 reading. Returns: label corresponding to the selected item.
Reply | I
(I: 5.10, II: 5.30)
